measured-target: T1, MBP-FoxP3ΔN (Mus musculus, UniProt Q99JB6 188-423)
T1 sequence: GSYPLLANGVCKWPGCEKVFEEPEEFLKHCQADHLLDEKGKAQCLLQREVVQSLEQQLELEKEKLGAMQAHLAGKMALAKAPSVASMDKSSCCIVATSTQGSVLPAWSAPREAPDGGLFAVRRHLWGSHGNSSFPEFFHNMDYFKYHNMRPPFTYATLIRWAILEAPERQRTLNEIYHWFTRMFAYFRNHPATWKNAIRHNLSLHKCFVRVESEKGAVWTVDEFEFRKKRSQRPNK
measurement-notes: MBP pull-down; EMSA: 0.2 uM DNA, 20 mM Tris pH 7.5, 150 mM NaCl, 1.5 mM MgCl2, 2 mM DTT, 30 min at 4 C; anti-HA bead DNA pull-down: 20 min at room temperature; the EMSA IR-FKHM4g length is taken as 31 bp
assay-conditions: protein: recombinant; tags: His6-MBP; blunt

binder | binding result
FKHM-seq3 (dsDNA) DNA 1: ATTTGTTTACTCGAGATGCATCAT DNA 2: ATGATGCATCTCGAGTAAACAAAT | binds
IR-seq3 (dsDNA) DNA 1: ATGATGCATCTCGAGATGCATCAT DNA 2: ATGATGCATCTCGAGATGCATCAT | no binding
FKHM-seq1 (dsDNA) DNA 1: ATTTGTTTACTCGAGACGCGAAAT DNA 2: ATTTCGCGTCTCGAGTAAACAAAT | binds
Major FKHM-seq5 (dsDNA) DNA 1: AAATGTTTACTAGGAATGCAATGA DNA 2: TCATTGCATTCCTAGTAAACATTT | binds
IR-seq2 (dsDNA) DNA 1: ATTTTGCGTCTCGAGACGCAAAAT DNA 2: ATTTTGCGTCTCGAGACGCAAAAT | no binding
IR-seq1 (dsDNA) DNA 1: ATTTCGCGTCTCGAGACGCGAAAT DNA 2: ATTTCGCGTCTCGAGACGCGAAAT | no binding
